Consider the following binders and their measured fold difference in affinity vs original readings.
Biological target: binding partner (antigen) of C5A (XPA23)
Test: Biacore, K-off, fold vs original
Numeric answer only, unit fold assumed.

1) C5A (XPA23) VH V99F (antibody, V domains shown) VH: EVQLLESGGGLVQPGGSLRLSCAASGFTFSKYFMFWVRQAPGKGLEWVSVISPSGGMTRYADSVKGRFTISRDNSKNTLYLQMNSLRAEDTAVYYCARFGYGGNSDYWGQGTLVTVSS VL: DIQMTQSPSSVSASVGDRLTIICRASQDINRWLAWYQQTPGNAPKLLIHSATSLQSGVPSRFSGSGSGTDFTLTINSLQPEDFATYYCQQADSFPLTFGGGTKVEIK ... 0.03

Inquiry: Which value of fold difference in affinity vs original has been reported for C5A (XPA23) VH G56I (antibody, V domains shown) VH: EVQLLESGGGLVQPGGSLRLSCAASGFTFSKYFMFWVRQAPGKGLEWVSVISPSGIMTRYADSVKGRFTISRDNSKNTLYLQMNSLRAEDTAVYYCARVGYGGNSDYWGQGTLVTVSS VL: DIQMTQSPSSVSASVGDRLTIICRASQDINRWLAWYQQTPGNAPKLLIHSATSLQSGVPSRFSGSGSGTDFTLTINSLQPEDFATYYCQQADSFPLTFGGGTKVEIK in the records?
Reply text: 1.71

Inquiry: Follow-up entry: C5A (XPA23) VH S54A (antibody, V domains shown) VH: EVQLLESGGGLVQPGGSLRLSCAASGFTFSKYFMFWVRQAPGKGLEWVSVISPAGGMTRYADSVKGRFTISRDNSKNTLYLQMNSLRAEDTAVYYCARVGYGGNSDYWGQGTLVTVSS VL: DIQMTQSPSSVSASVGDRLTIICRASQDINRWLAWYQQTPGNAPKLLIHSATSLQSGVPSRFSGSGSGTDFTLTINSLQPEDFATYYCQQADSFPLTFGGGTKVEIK
Reply text: 1
